target: UniProtKB Q13639; assay: Displacement of [3H]GR-113808 from human 5HT4e receptor expressed in C6 cells; format: cell-based
Sequence (Q13639 whole entry): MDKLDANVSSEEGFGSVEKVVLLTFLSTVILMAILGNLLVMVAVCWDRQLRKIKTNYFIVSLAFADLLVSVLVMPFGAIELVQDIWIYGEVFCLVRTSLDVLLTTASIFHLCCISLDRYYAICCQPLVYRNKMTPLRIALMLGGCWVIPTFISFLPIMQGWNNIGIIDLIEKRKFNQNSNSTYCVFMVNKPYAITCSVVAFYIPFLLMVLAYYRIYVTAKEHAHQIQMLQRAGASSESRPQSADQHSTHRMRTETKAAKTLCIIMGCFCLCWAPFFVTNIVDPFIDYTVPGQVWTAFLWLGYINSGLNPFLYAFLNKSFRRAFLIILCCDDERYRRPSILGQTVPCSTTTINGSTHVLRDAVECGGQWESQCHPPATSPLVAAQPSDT
Listed next: entries and their corresponding Ki.
Provide only the numeric value, understood in µM.

COc1cc(N)c(Cl)cc1C(=O)OCCN1CCC(CCNC(=O)CCCCCCCCCCC(=O)NCCC2CCN(CCOC(=O)c3cc(Cl)c(N)cc3OC)CC2)CC1	0.009
COc1cc(N)c(Cl)cc1C(=O)OCCN1CCC(CNC(=O)CCCN(CC#Cc2ccc(C#CCN(CCCC(=O)NCC3CCN(CCOC(=O)c4cc(Cl)c(N)cc4OC)CC3)C(=O)OC(C)(C)C)cc2)C(=O)OC(C)(C)C)CC1	0.025
COc1cc(N)c(Cl)cc1C(=O)OCCN1CCC(CNC(=O)CCCN(CCCc2cccc(CCCN(CCCC(=O)NCC3CCN(CCOC(=O)c4cc(Cl)c(N)cc4OC)CC3)C(=O)OC(C)(C)C)c2)C(=O)OC(C)(C)C)CC1	0.023
COc1cc(N)c(Cl)cc1C(=O)OCCN1CCC(CNC(=O)CN(CC#Cc2ccc(C#CCN(CC(=O)NCC3CCN(CCOC(=O)c4cc(Cl)c(N)cc4OC)CC3)C(=O)OC(C)(C)C)cc2)C(=O)OC(C)(C)C)CC1	0.044
COc1cc(N)c(Cl)cc1C(=O)OCCN1CCC(CNC(=O)CN(CCCc2ccc(CCCN(CC(=O)NCC3CCN(CCOC(=O)c4cc(Cl)c(N)cc4OC)CC3)C(=O)OC(C)(C)C)cc2)C(=O)OC(C)(C)C)CC1	0.019
COc1cc(N)c(Cl)cc1C(=O)OCCN1CCC(NC(=O)CCCN(CCCc2ccc(CCCN(CCCC(=O)NC3CCN(CCOC(=O)c4cc(Cl)c(N)cc4OC)CC3)C(=O)OC(C)(C)C)cc2)C(=O)OC(C)(C)C)CC1	0.012

Next compound, Ki to be filled in.
IN: Input "COc1cc(N)c(Cl)cc1C(=O)OCCN1CCC(CNC(=O)CCCN(CC#Cc2cccc(C#CCN(CCCC(=O)NCC3CCN(CCOC(=O)c4cc(Cl)c(N)cc4OC)CC3)C(=O)OC(C)(C)C)c2)C(=O)OC(C)(C)C)CC1" , output reported Ki.
OUT: 0.04
